measurement description: Measured logD
Format: physicochemical
measurement conditions: octanol/water; pH=7.4, free base
assay metric: logD

Which logD is listed for CCn1ncc2c(NC3CCN(C(N)=O)CC3)c(C(=O)NCc3ccc(C)c(C)c3)cnc21 ?
~3.4

----------
The following compounds are shown together with reported IC50 values.
target desc: PDE4B (human recombinant) (Homo sapiens)
Construct: made in house; host or cells: Saccharomyces cerevisiae strain GL62 (PDE-deficient yeast), 100,000xg supernatant of cell lysate, as described in WO 94/20079
Sequence (Q07343 1-564 isoform Q07343-2): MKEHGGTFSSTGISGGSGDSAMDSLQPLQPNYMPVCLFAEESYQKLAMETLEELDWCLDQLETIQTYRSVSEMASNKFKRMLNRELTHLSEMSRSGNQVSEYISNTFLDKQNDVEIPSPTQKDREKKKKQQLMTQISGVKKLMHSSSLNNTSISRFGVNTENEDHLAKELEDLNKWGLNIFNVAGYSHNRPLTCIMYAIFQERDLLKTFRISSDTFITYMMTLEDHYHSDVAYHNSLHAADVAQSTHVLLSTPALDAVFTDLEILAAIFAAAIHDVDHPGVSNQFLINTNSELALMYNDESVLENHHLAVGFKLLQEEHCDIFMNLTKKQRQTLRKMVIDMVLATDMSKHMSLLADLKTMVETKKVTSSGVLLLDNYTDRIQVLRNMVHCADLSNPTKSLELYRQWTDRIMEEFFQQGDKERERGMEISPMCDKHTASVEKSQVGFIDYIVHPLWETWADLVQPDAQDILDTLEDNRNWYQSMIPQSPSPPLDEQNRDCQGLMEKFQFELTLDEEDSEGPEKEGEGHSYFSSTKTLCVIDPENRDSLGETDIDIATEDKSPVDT
measurement description: Inhibition of PDE4B activity (SPA or FP assay)
Type: biochemical
measurement conditions: SPA or FP assay or similar; n=1 or average of 2 or more readings; range given for the listed group of Examples; read-out: PDE4B pIC50 (±about 0.5) (converted)

CCn1ncc2c(N[C@@H]3CCN(C(N)=O)C3)c(C(=O)NCc3ccc(C)cc3C)cnc21 [Example 71]; 31.6 to 100 nM
CCn1ncc2c(N[C@H]3CC[C@H](C(N)=O)CC3)c(C(=O)NCc3ccc(C)c(C)c3)cnc21 [Example 9]; 158 to 200 nM
CCn1ncc2c(N[C@H]3CC[C@@H](C(N)=O)CC3)c(C(=O)NCc3ccc(OC)cc3)cnc21 [Example 47]; 1.26 to 5.01 nM

Which IC50 is listed for CCn1ncc2c(NC3CCC(C(N)=O)CC3)c(C(=O)NCc3ccc(C)c(C)c3)cnc21 (stereo not shown) [Example 4] ?
1 to 3.16 nM

// same read-out, input: CCn1ncc2c(N[C@H]3CC[C@H](C(N)=O)CC3)c(C(=O)NCc3ccc(C)cc3C)cnc21 [Example 46]
158 to 200 nM

// same read-out, input: CCn1ncc2c(NC3CCC(C(N)=O)CC3)c(C(=O)NCc3ccc(C)cc3C)cnc21 (stereo not shown) [Example 5]
1 to 3.16 nM

// same read-out, input: CCn1ncc2c(NC3CCN(C(N)=O)CC3)c(C(=O)NCc3ccc(OC)cc3)cnc21 [Example 3]
1 to 3.16 nM

// same read-out, input: CCn1ncc2c(N[C@H]3CCN(C(N)=O)C3)c(C(=O)NCc3ccc(C)cc3C)cnc21 [Example 69]
~10 nM

// same read-out, input: CCn1ncc2c(NC3CCN(C(N)=O)CC3)c(C(=O)NCc3ccc(C)cc3C)cnc21 [Example 1]
0.631 to 0.794 nM

// same read-out, input: CCn1ncc2c(N[C@@H]3CCN(C(N)=O)C3)c(C(=O)NCc3ccc(C)c(C)c3)cnc21 [Example 72]
31.6 to 100 nM

// same read-out, input: CCn1ncc2c(N[C@H]3CC[C@@H](C(N)=O)CC3)c(C(=O)NCc3ccc(C)c(C)c3)cnc21 [Example 8]
1 to 3.16 nM

// same read-out, input: CCn1ncc2c(N[C@H]3CC[C@@H](C(N)=O)CC3)c(C(=O)NCc3ccc(C)cc3C)cnc21 [Example 45]
1.26 to 5.01 nM

// same read-out, input: CCn1ncc2c(N[C@H]3CCN(C(N)=O)C3)c(C(=O)NCc3ccc(C)c(C)c3)cnc21 [Example 70]
~10 nM
